experiment: chemical genetic growth profiling, strain panel (AID 1159580);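 further: tested at 20 µM; growth read once vehicle control cultures reached saturation at 30 °C; 1 = growth at the plate median or of vehicle wells; lower values mean less growth of the strain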; conditions: S. cerevisiae deletion strains, growth OD, locus YBR160W, strain CDC28, active compounds read low
The campaign covered roughly 5,500 compounds. About 2,000 (36%) were called active. Another 18% or so got no clear call; they are omitted. Some of the results follow.
MEASUREMENT NAME: normalized growth
Give the figure by itself; no unit, no explanation.

normalized growth measured on N#C/C(=N/Nc1ccc(F)cc1)C(=O)c1ccccc1 = 0.862

response.value for Oc1c(Cl)cc(Cl)cc1C=Nc1nc(-c2ccc3ccccc3c2)cs1 (field: normalized growth) = 0.96

Lookup result for CC(C)(C)c1ccc(C(=N)SC(C(=O)C(F)(F)F)c2ccccc2)cc1 (stereo not drawn) ; measured normalized growth: 0.994

# normalized growth (compound: O=C(ON=C1CCCCC1)c1ccc([N+](=O)[O-])cc1 ) is 0.959

Please fill in: normalized growth reported for CC(C)c1ccc(COC(=O)Nc2ccc(CSc3ccc(Cl)cc3)o2)cc1 = 0.989

Item: N#C/C(=N/Nc1ccccc1)C(=O)c1ccccc1OC(F)(F)F | normalized growth: 0.916

Sure, the documented normalized growth for Cc1nn(C)c(C(=O)Sc2ccc(OC(F)(F)F)cc2)c1[N+](=O)[O-] is 0.977

O=C(/C=C/c1ccc2c(c1)OCO2)Nc1ccc(Br)cc1 yielded normalized growth of 0.967

For this compound ( O=C(c1csc(-c2ccc(Cl)cc2)c1)N1CCCCC1 ), measured normalized growth is 0.944

Entry under test: CC1(C)CC(=O)C=C(Sc2nc3ccccc3o2)C1 . Its normalized growth was 0.962

Record O=[N+]([O-])c1ccc(ON=C2CCCCC2)c([N+](=O)[O-])c1 , field normalized growth: 0.997

Item: O=C(NCc1ccc(Cl)c(Cl)c1)c1cccnc1OCC(F)(F)F | normalized growth: 0.961

Reported normalized growth of N#C/C(=N/Nc1ccc(F)cc1)S(=O)(=O)c1ccc(Cl)cc1 : 0.965
